target: F protein of respiratory syncytial virus (RSV-Long strain), on infectious virus (respiratory syncytial virus (RSV-Long …, UniProt P12568 26-574)); assay: cell-based or functional assay
outcome-measure: Mean IC50 µg/ml, RSV microneutralization

Worked examples follow.
Clone 11 (Fab) (Fab, V domains shown) VH: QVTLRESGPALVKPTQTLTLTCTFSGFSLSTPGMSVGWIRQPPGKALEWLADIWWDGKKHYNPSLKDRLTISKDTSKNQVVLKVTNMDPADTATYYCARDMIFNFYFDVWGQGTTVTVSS VL: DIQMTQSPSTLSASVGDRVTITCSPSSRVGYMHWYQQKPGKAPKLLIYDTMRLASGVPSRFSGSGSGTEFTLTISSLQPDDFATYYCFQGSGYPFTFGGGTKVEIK	> 1 µg/mL
MEDI-493 (clone 16), IgG1 (COR)/kappa (K102) humanized MAb (antibody, V domains shown) VH: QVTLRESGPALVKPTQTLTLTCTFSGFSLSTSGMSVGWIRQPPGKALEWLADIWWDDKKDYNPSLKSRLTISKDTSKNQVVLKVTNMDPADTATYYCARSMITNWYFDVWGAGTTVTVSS VL: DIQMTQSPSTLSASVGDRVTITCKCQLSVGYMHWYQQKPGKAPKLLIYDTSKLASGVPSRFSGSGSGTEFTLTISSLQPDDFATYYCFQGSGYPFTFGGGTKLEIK	0.453 µg/mL
Clone 9 (Fab) (Fab, V domains shown) VH: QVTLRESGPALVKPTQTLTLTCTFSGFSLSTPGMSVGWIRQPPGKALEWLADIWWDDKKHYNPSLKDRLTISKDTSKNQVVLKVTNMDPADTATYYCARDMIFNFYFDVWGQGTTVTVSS VL: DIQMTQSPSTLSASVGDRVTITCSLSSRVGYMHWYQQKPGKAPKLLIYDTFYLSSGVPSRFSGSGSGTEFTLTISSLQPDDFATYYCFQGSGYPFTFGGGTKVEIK	0.0407 µg/mL
Clone 10 (Fab) (Fab, V domains shown) VH: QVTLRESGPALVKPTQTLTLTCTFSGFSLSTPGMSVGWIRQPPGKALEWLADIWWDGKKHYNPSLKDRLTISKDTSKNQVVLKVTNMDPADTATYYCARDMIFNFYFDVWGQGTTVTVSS VL: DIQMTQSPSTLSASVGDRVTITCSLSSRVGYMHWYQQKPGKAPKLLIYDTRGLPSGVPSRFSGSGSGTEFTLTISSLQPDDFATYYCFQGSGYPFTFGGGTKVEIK	0.0464 µg/mL

[Q] Could you share which Mean IC50 µg/ml, RSV microneutralization value was measured for Clone 15 (Fab) (Fab, V domains shown) VH: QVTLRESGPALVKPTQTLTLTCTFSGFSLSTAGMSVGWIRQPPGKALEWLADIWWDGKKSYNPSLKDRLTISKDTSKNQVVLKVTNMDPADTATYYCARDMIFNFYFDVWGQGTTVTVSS VL: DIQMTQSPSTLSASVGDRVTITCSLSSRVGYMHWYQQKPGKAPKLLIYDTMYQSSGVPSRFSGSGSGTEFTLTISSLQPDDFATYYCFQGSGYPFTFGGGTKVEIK ?
[A] 0.0264 µg/mL
